Target: Human C3 (human, UniProt P01024 23-1663)
Sequence (P01024 23-1663 limits assumed): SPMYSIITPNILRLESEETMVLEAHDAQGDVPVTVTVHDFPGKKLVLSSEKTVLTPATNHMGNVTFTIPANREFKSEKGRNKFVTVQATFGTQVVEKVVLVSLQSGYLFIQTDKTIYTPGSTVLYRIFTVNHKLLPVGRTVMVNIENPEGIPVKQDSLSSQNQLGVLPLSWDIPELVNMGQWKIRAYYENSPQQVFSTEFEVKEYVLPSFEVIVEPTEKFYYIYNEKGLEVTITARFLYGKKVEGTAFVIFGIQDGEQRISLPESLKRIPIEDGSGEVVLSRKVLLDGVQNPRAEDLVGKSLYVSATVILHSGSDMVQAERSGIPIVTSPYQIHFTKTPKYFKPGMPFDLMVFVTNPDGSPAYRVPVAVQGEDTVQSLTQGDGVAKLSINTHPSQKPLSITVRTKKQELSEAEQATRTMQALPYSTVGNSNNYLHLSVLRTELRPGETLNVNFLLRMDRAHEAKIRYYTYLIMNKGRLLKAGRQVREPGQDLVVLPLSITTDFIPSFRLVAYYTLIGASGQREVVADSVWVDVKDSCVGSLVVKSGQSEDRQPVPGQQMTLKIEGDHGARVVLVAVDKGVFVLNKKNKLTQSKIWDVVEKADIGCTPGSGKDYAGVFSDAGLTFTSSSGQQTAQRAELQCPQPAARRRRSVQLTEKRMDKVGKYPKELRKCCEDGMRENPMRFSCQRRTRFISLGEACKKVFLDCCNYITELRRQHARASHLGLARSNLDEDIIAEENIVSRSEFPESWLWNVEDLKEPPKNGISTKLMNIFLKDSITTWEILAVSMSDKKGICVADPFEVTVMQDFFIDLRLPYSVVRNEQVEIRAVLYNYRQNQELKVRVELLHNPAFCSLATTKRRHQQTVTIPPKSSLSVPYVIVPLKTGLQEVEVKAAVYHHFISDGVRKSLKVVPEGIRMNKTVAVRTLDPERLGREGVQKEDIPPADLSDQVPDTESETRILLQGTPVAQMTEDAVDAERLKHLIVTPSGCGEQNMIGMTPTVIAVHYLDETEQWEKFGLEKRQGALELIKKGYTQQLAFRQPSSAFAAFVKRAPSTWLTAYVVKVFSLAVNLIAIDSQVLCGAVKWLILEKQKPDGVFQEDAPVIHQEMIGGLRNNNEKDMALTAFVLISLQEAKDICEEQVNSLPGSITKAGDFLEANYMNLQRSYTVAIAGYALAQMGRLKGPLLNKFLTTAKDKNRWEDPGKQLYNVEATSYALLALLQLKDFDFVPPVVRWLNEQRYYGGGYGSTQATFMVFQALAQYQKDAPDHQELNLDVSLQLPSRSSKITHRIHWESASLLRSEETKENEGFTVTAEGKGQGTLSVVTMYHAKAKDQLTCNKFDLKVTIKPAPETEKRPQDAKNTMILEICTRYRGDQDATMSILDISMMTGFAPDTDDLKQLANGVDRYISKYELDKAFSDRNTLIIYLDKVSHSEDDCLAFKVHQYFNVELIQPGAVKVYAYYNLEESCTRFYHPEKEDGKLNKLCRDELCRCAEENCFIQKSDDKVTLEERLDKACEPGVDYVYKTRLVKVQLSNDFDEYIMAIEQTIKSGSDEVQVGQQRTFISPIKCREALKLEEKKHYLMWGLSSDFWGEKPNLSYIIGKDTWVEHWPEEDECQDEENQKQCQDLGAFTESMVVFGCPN
Experiment: cell-based or functional assay
Positions of bridges follow the written chain, without caps; N, C: chain ends.
Measure: IC50[nM], inhibition of hemolysis

stdin: May I ask what IC50[nM], inhibition of hemolysis has been recorded for Ac-ICIWQKWGAHRCTGAES-NH2 (disulfide 2-12; SMILES CC[C@H](C)[C@H](NC(C)=O)C(=O)N[C@H]1CSSC[C@@H](C(=O)N[C@H](C(=O)NCC(=O)N[C@@H](C)C(=O)N[C@@H](CCC(=O)O)C(=O)N[C@@H](CO)C(N)=O)[C@@H](C)O)NC(=O)[C@H](CCCNC(=N)N)NC(=O)[C@H](Cc2c[nH]cn2)NC(=O)[C@H](C)NC(=O)CNC(=O)[C@H](Cc2c[nH]c3ccccc23)NC(=O)[C@H](CCCCN)NC(=O)[C@H](CCC(N)=O)NC(=O)[C@H](Cc2c[nH]c3ccccc23)NC(=O)[C@H]([C@@H](C)CC)NC1=O) [Compound 8] ?
stdout: < 500 nM
